Tested on: M. tuberculosis MDR strain Praha 131
Assay: microbe, parasite or virus in culture
Type: cell-based
Observed property: strain resistant or sensitive to the drug

{"columns": ["Compound", "Study target", "Reported"],
 "data": [
  ["NCC[C@H](O)C(=O)N[C@@H]1C[C@H](N)[C@@H](O[C@H]2O[C@H](CN)[C@@H](O)[C@H](O)[C@H]2O)[C@H](O)[C@H]1O[C@H]1O[C@H](CO)[C@@H](O)[C@H](N)[C@H]1O [Amikacin]", "M. tuberculosis MDR strain Praha 131", ">27.2 R"],
  ["CC(C)/N=c1\\cc2n(-c3ccc(Cl)cc3)c3ccccc3nc-2cc1Nc1ccc(Cl)cc1 [Clofazimin]", "M. tuberculosis MDR strain Praha 131", "0.26 C"],
  ["CO[C@H]1/C=C/O[C@@]2(C)Oc3c(C)c(O)c4c(O)c(c(/C=N/N5CCN(C)CC5)c(O)c4c3C2=O)NC(=O)/C(C)=C\\C=C\\[C@H](C)[C@H](O)[C@@H](C)[C@@H](O)[C@@H](C)[C@H](OC(C)=O)[C@@H]1C [Rifampicin]", "M. tuberculosis MDR strain Praha 131", ">9.7 R"],
  ["CC[C@@H](CO)NCCN[C@@H](CC)CO [Etambutol]", "M. tuberculosis MDR strain Praha 131", "39.2 R"],
  ["NNC(=O)c1ccncc1 [Isoniazid]", "M. tuberculosis MDR strain Praha 131", "14.6 R"],
  ["CC1COc2c(N3CCN(C)CC3)c(F)cc3c(=O)c(C(=O)O)cn1c23 (stereo not shown) [Ofloxacin]", "M. tuberculosis MDR strain Praha 131", "22.2 R"],
  ["[H]/N=C(/N)N[C@H]1[C@H](O)[C@@H](O)[C@H](O[C@@H]2O[C@@H](C)[C@](O)(C=O)[C@H]2O[C@@H]2O[C@@H](CO)[C@H](O)[C@@H](O)[C@@H]2NC)[C@@H](N/C(N)=N\\[H])[C@@H]1O [Streptomycin]", "M. tuberculosis MDR strain Praha 131", ">27.5 R"]
]}
